- protocol_summary: Toxicity in Poecilia reticulata assessed as mortality at 22.8 ug/ml after 72 hrs
- Type: organism-based
- condition_set: in vivo, read-out: Activity
readout_label: mortality at 72 h, 22.8 ug/ml (%)
Reply numerically in %, unit not repeated.

[Q] Output mortality at 72 h, 22.8 ug/ml of H-RQWKKWWQWRR-NH2
[A] 0

###

- protocol_summary: Toxicity in Poecilia reticulata assessed as mortality at 16.4 ug/ml after 48 hrs
- Assay type: organism-based
- condition_set: in vivo, read-out: Activity
readout_label: mortality at 48 h, 16.4 ug/ml (%)
Reply numerically in %, unit not repeated.

[Q] Output mortality at 48 h, 16.4 ug/ml of H-RQIRRWWQW-NH2
[A] 0

###

- System: Candida albicans
- protocol_summary: Antifungal activity against Candida albicans ATCC 10231 assessed as inhibition of fungal growth at 25 uM after 24 hrs by microbroth dilution method
- Assay type: functional
- condition_set: ATCC 10231, 24 h
We begin with a simple list: items and their reported inhibition at 25 µM.
Reply numerically in %, unit not repeated.

Observe how each entry below is paired with its result.
substance=H-NRRMKWKK-NH2 subject_of_test="Candida albicans" readout_label="inhibition at 25 µM" readout_number=0
substance=H-RQWKKWWQWRR-NH2 subject_of_test="Candida albicans" readout_label="inhibition at 25 µM" readout_number=67.9
substance=H-RQIRRWWQW-NH2 subject_of_test="Candida albicans" readout_label="inhibition at 25 µM" readout_number=50.7

We next turn to a different substance, shown below.
[Q] Output inhibition at 25 µM of H-RQIRRWWQWRR-NH2
[A] 46.6

###

- protocol_summary: Toxicity in Poecilia reticulata assessed as mortality at 16.4 ug/ml after 72 hrs
- Type: organism-based
- condition_set: in vivo, read-out: Activity
readout_label: mortality at 72 h, 16.4 ug/ml (%)
Reply numerically in %, unit not repeated.

[Q] Output mortality at 72 h, 16.4 ug/ml of H-RQIRRWWQW-NH2
[A] 0

###

- protocol_summary: Toxicity in Poecilia reticulata assessed as mortality at 22.8 ug/ml after 96 hrs
- Type: organism-based
- condition_set: in vivo, read-out: Activity
readout_label: mortality at 96 h, 22.8 ug/ml (%)
Reply numerically in %, unit not repeated.

[Q] Output mortality at 96 h, 22.8 ug/ml of H-RQWKKWWQWRR-NH2
[A] 0

###

- Test system: Cryptococcus neoformans
- protocol_summary: Antifungal activity against Cryptococcus neoformans ATCC 32264 assessed as inhibition of fungal growth at 6.25 uM after 48 hrs by microbroth dilution method
- Type: functional
- condition_set: ATCC 32264, 48 h
Residues, ends and D or L forms follow the SMILES beside them.
We begin with a simple list: items and their reported inhibition at 6.25 µM.
Reply numerically in %, unit not repeated.

compound="C[C@H](N)C(=O)N[C@@H](C)C(=O)N[C@@H](C)C(=O)N[C@@H](C)C(N)=O (H-AAAA-NH2)" readout_label="inhibition at 6.25 µM" measure_unit=% readout_number=12.4

[Q] Jot down inhibition at 6.25 µM (Cryptococcus neoformans) of CC[C@H](C)[C@H](NC(=O)[C@@H](NC(=O)[C@@H](N)CCCNC(=N)N)[C@@H](C)CC)C(=O)N[C@@H](CCCCN)C(N)=O (H-RIIK-NH2) .
[A] 14.5

[Q] Jot down inhibition at 6.25 µM (Cryptococcus neoformans) of C[C@H](NC(=O)[C@H](C)NC(=O)[C@@H](N)CCCNC(=N)N)C(=O)N[C@@H](CCCCN)C(N)=O (H-RAAK-NH2) .
[A] 14.1

[Q] Jot down inhibition at 6.25 µM (Cryptococcus neoformans) of C[C@@H]1[C@H](O)[C@@H](C)/C=C/C=C/C=C/C=C/C=C/C=C/C=C/[C@H](O[C@@H]2O[C@H](C)[C@@H](O)[C@H](N)[C@@H]2O)C[C@@H]2O[C@](O)(C[C@@H](O)C[C@@H](O)[C@H](O)CC[C@@H](O)C[C@@H](O)CC(=O)O[C@H]1C)C[C@H](O)[C@H]2C(=O)O .
[A] 100

[Q] Jot down inhibition at 6.25 µM (Cryptococcus neoformans) of CC[C@H](C)[C@H](NC(=O)[C@H](CCC(N)=O)NC(=O)[C@@H](N)CCCNC(=N)N)C(=O)N[C@@H](CCCNC(=N)N)C(N)=O (H-RQIR-NH2) .
[A] 0

[Q] Jot down inhibition at 6.25 µM (Cryptococcus neoformans) of CC[C@H](C)[C@H](NC(=O)[C@H](C)NC(=O)[C@@H](N)CCCNC(=N)N)C(=O)N[C@@H](CCCCN)C(N)=O (H-RAIK-NH2) .
[A] 0
